System: NCI-H226 lung
experiment-notes: NCI-60 one-dose screen, 48 h (100 = growth as untreated, 0 = no growth, -100 = all killed)
experimental-parameters: 10 µM unless noted
The panel holds about 83,000 compounds, 20% with a hit somewhere; the sample as a whole holds those more often.
Threshold 90%. growth below it: y. growth at it or above: n.

Use the examples below as a reference point.
Oc1c(I)cc(I)cc1CN(Cc1ccccn1)Cc1ccccn1
y
Nc1c(C(=O)Nc2cccc3ncccc23)sc2nc3c(cc12)CN(Cc1ccccc1)CC3
y
CCN(CC)c1ccc(-c2cc(-c3cc(OC)c(OC)c(OC)c3)nc(N3CCC(O)CC3)c2C#N)cc1
y
C[C@H]1[C@H](C)CC[C@]2(C(=O)NCCNCCN)CC[C@]3(C)C(=CC[C@@H]4[C@@]5(C)CCC(=O)C(C)(C)[C@@H]5CC[C@]43C)[C@H]12
n
CC/C(=C(\c1ccc(Cl)cc1)c1ccc(OCCN2CCCCC2)cc1)c1ccc(O)cc1
y

Please let me know if `O=C1NC(=O)C(c2coc3cc(Br)ccc23)=C1c1c[nH]c2ccccc12` shows growth below 90%.
y

----------
Test system: T-47D breast
experiment-notes: NCI-60 one-dose screen, 48 h (100 = growth as untreated, 0 = no growth, -100 = all killed)
experimental-parameters: 10 µM unless noted
About 83,000 compounds went through this panel and 20% of them were active in at least one assay; those are over-represented in the sample as a whole.
Quick reference for growth among some compounds
Record the value in %, omitting the unit from your answer.

Consider the worked cases shown below.
O=S(=O)(NCCNc1nccc(-c2c(-c3ccc(F)c(O)c3)nc3sccn23)n1)c1ccc(Cl)cc1
2.76
O=C1CCCCN1c1ccc(C2=NCCCN2)cc1
57.8
C=C1CC[C@@H]2C(C)(C)[C@H](O)CC[C@@]2(C)[C@@H]1COc1ccc2ccc(=O)oc2c1
7.88
O=C(O)c1cn(C2CC2)c2cc(N3CCN(C(=O)N4CCOCC4)CC3)c(F)cc2c1=O
110
CC1=C2[C@@H](CC1)[C@]1(C)O[C@@](C3CCNCC3)(C[C@H]1OC(=O)CO)[C@H]2OC(=O)/C=C/c1ccccc1
62.6
CN1c2ccccc2S(=O)(=O)n2c(SCC(=O)Nc3nc4ccc(F)cc4s3)nnc21
112
Fc1cc2[nH]ncc2c2c3c(c(-c4cn[nH]c4C(F)(F)F)nc12)CCCC3
-16.2
Clc1ccc(Nc2nnc(CNc3ccccc3)c3ccccc23)cc1
2.82

Data request, read-out growth, for `Nc1nc2ccccc2c2c(=O)c3cc(Cl)ccc3sc12`
45.3

Fill blank: measured growth of the compound `Cc1nc([P+](c2ccccc2)(c2ccccc2)c2ccccc2)c(N2CCCCC2)o1` is ____.
-0.433

Looking for the measured growth of `COc1ccc(-c2cc(-c3cccnc3)nc3sc4c(N)c(C(C)=O)c(-c5ccccc5)nc4c23)cc1OC` , can you help?
59.4

Any idea what growth was measured for `COC(=O)c1ccc2c(c1)c1c(C)c3cnccc3c(C)c1n2C` ?
-21.6

Look up growth for this compound: `Cc1cccc(N2C(=O)/C(=C/C(Cl)=C/c3ccc([N+](=O)[O-])cc3)SC2=S)c1C`
5.42

----------
# growth listing for each entry below
Test system: U251 CNS
experiment-notes: NCI-60 one-dose screen, 48 h (100 = growth as untreated, 0 = no growth, -100 = all killed)
experimental-parameters: 10 µM unless noted
Protocol: Growth inhibition of the U251 human tumor cell line is measured as a screen for anti-cancer activity. Cells are grown in 96 well plates and exposed to the test compound for 48 hours. Compounds are tested at a single concentration, which is 10^-5 M for most compounds. The reported endpoint is percent growth (GI% or GIPRCNT), where numbers from 0 - 100% represent growth inhibition, and numbers from -100% - 0 represent cell death. For example, a value of 40 represents 60% growth inhibition. […]
About 83,000 compounds went through this panel and 20% of them were active in at least one assay; those are over-represented in the sample as a whole.
Please give a number only; it is taken to be in %.

Reported growth, molecule `CCN1CCN(CCNc2nccc(-c3c(-c4ccc(F)c(O)c4)nc4occn34)n2)S1(=O)=O` : ____
45.7

Hello, the source for this data is PubChem BioAssay (NCI), in case you need it.
